Test system: rodent lifetime carcinogenesis bioassay, tumor incidence TD50
Experiment: carcinogenic potency in animals, long-term in vivo studies, CPDB compilation (AID 1745844)
Conditions: rat; strain Fischer 344; females; in drinking water; site: upper gastrointestinal tract; lesion: several types; types named in the paper; dosed 30 weeks; study length 133 weeks
measuredProperty: TD50

compoundstructurestring=O=NN1CCCN(N=O)CC1 result="0.708 mg/kg/day"

---

Test system: rodent lifetime carcinogenesis bioassay, tumor incidence TD50
Experiment: carcinogenic potency in animals, long-term in vivo studies, CPDB compilation (AID 1745844)
Settings: mouse; strain BDF1; males; in drinking water; site: liver; lesion: hepatocellular carcinoma; dosed 104 weeks; study length 105 weeks
measuredProperty: TD50

compoundstructurestring=C1COCCO1 measuredproperty=TD50 result="1040 mg/kg/day"
